# TARGET_OR_SYSTEM: T1, HLA-A*02:01 (peptide-receptive MHC class I monomer after UV-ligand exchange) (human)
# T1 construct: Monomers made with a UV-sensitive peptide that is cleaved by UV and exchanged for the test peptide; captured on streptavidin plates; also called MHC molecules
# TEST_PROTOCOL: UV-ligand exchange + anti-b2m ELISA; exchange yield grade: + >=10%, ++ >=20%, +++ >=50, ++++ >=75%
# Lookup of reported peptide exchange yield keyed by entry

# annotated cases, reported peptide exchange yield shown
AAASLIRLV [peptide AAASLIRLV (SEQ ID NO: 126)] = 10 to 20%
SMYDKVLML [peptide SMYDKVLML (SEQ ID NO: 105)] = ≥ 75%
FAYDGKDYLTL [peptide FAYDGKDYLTL (SEQ ID NO: 85)] = 50 to 75%

Dear colleague, please send me the reported peptide exchange yield for LLAEIGAVTLV [peptide LLAEIGAVTLV (SEQ ID NO: 81)] when you can.
50 to 75%

Using known records, supply peptide exchange yield for ILMDPSPEYA [peptide ILMDPSPEYA (SEQ ID NO: 80)]
50 to 75%

Look up and report measured peptide exchange yield for this entry: LLMSTENEL [peptide LLMSTENEL (SEQ ID NO: 63)]
50 to 75%

Provide one value: measured peptide exchange yield of MLYDIVPVV [peptide MLYDIVPVV (SEQ ID NO: 67)]
50 to 75%

Quickly give me recorded peptide exchange yield for IQHDLIFSL [peptide IQHDLIFSL (SEQ ID NO: 89)]
50 to 75%

Give me measured peptide exchange yield, please, for this binder: SLLEYQMLV [peptide SLLEYQMLV (SEQ ID NO: 103)]
≥ 75%

Answer with the recorded peptide exchange yield of MLDEILLQL [peptide MLDEILLQL (SEQ ID NO: 20)] only.
50 to 75%

The measured values listed here are drawn from patent US20170096461A1.
